organism: Rattus norvegicus; assay: Open TG-GATES - Regimen: Daily Repeat; type: toxicity, organism-based, Sprague-Dawley; set-up: regimen Daily Repeat, gender Male, age 6 weeks; details: in vivo, po, 100 mg/kg, […], tissue Blood, route gavage, dose level Low, time 7 day
observation_type: Bas (%)
Your answer should be a plain number; it is taken to be in %.

Query block: State the recorded Bas for this entry: CCN1CCCC1CNC(=O)c1cc(S(N)(=O)=O)ccc1OC (centres undefined) [SULPIRIDE]
Result block: 0.6

Query block: Consider the compound O=C(N[C@H](CO)[C@H](O)c1ccc([N+](=O)[O-])cc1)C(Cl)Cl and give its measured Bas.
Result block: 0

Query block: Which value of Bas has been reported for CC(C)(S)[C@@H](N)C(=O)O in the records?
Result block: 0.2

From here, focus on the item given below.
Query block: Form field: reported Bas of O=C(O)c1cccnc1
Result block: 0

----------
species on record: Rattus norvegicus; assay: Open TG-GATES - Regimen: Single; type: toxicity, organism-based, Sprague-Dawley; set-up: regimen Single, gender Male, age 6 weeks; settings: in vivo, po, 0 mg/kg, 3 h, tissue Liver, route gavage, dose level Control
In this section, each of the compounds is paired with its reported LIVER.
Report only the number, with the unit g understood.

These solved cases illustrate the format of a correct answer.
Query block: Data request, read-out LIVER, for CCC(C)(C)C(=O)O[C@H]1C[C@@H](C)C=C2C=C[C@H](C)[C@H](CC[C@@H]3C[C@@H](O)CC(=O)O3)[C@H]21 [SIMVASTATIN]
Result block: 9.7

Query block: Quick one: LIVER of CCN1CCCC1CNC(=O)c1cc(S(N)(=O)=O)ccc1OC (centres undefined) [SULPIRIDE] ?
Result block: 8.6

Query block: If you can, please state the reported LIVER value of C#C[C@]1(O)CC[C@H]2[C@@H]3CCc4cc(O)ccc4[C@H]3CC[C@@]21C [ETHINYL ESTRADIOL] .
Result block: 8.6

Query compound follows.
Query block: LIVER lookup needed for CC(C)C(=O)Nc1ccc([N+](=O)[O-])c(C(F)(F)F)c1 [FLUTAMIDE] , thanks.
Result block: 10

----------
organism: Rattus norvegicus; assay: Open TG-GATES - Regimen: Daily Repeat; type: toxicity, organism-based, Sprague-Dawley; parameters: regimen Daily Repeat, gender Male, age 6 weeks; conditions: in vivo, po, 300 mg/kg, 72 h, tissue Plasma, route gavage, dose level Middle, time 3 day
Recorded measurements of Ca, one per entry
Quick reminder: number only, in mg/dL, skip the unit.

Query block: Item CC(C)(S)[C@@H](N)C(=O)O [PENICILLAMINE] has what recorded Ca?
Result block: 11

Query block: Given the molecule CCN1CCCC1CNC(=O)c1cc(S(N)(=O)=O)ccc1OC (centres undefined) [SULPIRIDE] , what is its reported Ca?
Result block: 11.1

Query block: For O=C(O)c1cccnc1 [NIACIN] , what is its reported Ca?
Result block: 10.8

Query block: Dear colleague, I am looking for the recorded Ca of the following molecule: O=C(N[C@H](CO)[C@H](O)c1ccc([N+](=O)[O-])cc1)C(Cl)Cl [CHLORAMPHENICOL]
Result block: 10.9

----------
species: Rattus norvegicus; assay: Open TG-GATES - Regimen: Single; format: toxicity, organism-based, Sprague-Dawley; set-up: regimen Single, gender Male, age 6 weeks; details: in vivo, po, 0 mg/kg, 6 h, tissue Plasma, route gavage, dose level Control
observation_type: IP (mg/dL)
Please give a number only; it is taken to be in mg/dL.

Solved entries:
Query block: For the compound shown here, CC(=O)Oc1cc(C(C)C)c(OCCN(C)C)cc1C , give the reported IP.
Result block: 8.9

Query block: Could you tell me which IP is on file for Nc1nc(N)c2nc(-c3ccccc3)c(N)nc2n1 ?
Result block: 9.7

Query block: Item CC(C)C(=O)Nc1ccc([N+](=O)[O-])c(C(F)(F)F)c1 [FLUTAMIDE] has what recorded IP?
Result block: 9.5

Others:
Query block: GET /values?readout=IP&item= C[C@](N)(Cc1ccc(O)c(O)c1)C(=O)O
Result block: 10.6

Query block: So what's the measured IP for this one? CCN1CCCC1CNC(=O)c1cc(S(N)(=O)=O)ccc1OC (stereo unspecified) [SULPIRIDE]
Result block: 9.3

Query block: Any idea what IP was measured for CC(=N)S [THIOACETAMIDE] ?
Result block: 9.6
